# TARGET: GST-β-catenin (Homo sapiens, UniProt P35222)
# Construct: Expression and purification of GST-β-catenin has been reported previously; made in house
# Sequence (P35222 whole entry): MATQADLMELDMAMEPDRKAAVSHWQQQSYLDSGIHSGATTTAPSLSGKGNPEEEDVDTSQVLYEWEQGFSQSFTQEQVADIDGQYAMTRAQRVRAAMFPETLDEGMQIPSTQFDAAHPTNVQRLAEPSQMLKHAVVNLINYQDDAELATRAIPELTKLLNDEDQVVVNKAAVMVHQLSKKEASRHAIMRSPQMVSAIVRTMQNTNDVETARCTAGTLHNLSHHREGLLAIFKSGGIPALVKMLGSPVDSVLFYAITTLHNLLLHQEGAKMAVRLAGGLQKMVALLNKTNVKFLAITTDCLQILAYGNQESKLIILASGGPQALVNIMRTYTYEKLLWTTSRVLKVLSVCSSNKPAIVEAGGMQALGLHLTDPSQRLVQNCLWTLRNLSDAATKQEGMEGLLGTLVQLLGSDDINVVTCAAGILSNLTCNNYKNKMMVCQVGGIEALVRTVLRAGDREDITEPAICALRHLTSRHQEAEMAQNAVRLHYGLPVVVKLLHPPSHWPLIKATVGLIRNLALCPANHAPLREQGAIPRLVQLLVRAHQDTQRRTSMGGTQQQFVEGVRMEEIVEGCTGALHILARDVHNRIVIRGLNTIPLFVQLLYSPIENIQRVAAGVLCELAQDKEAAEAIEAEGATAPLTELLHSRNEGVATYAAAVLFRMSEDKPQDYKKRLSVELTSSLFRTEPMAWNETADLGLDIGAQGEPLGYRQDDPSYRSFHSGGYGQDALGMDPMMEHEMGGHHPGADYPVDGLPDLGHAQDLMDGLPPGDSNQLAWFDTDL
# PROCEDURE_SUMMARY: Competitive fluorescence polarization (FP)-based binding assay against β-catenin
Bridge positions count the residues as written; N and C are the ends. Square brackets hold non-standard residues; d marks the D form. Peptide text beside a SMILES is read from it.
Provide the reported pIC50 of each item.
pIC50 is defined as minus the log10 of a concentration measured in mol/L.

Report pIC50 for CC[C@H](C)[C@@H]1NC(=O)[C@@H](NC(=O)[C@H](CCC(=O)O)NC(=O)[C@@H]2CCCN2C(=O)[C@H](Cc2ccc(O)cc2)NC(C)=O)CC(=O)NCCCC[C@@H](C(=O)N[C@@H](Cc2c[nH]cn2)C(=O)N[C@@H](CC(C)C)C(=O)N[C@@H](CCC(N)=O)C(=O)N[C@@H](CCCNC(=N)N)C(=O)N[C@H](C(=O)N[C@H](C)C(=O)N[C@@H](CC(C)C)C(N)=O)C(C)C)NC(=O)[C@H](CC(=O)O)NC(=O)[C@H](CC(C)C)NC1=O [Peptide 8] (Ac-YPEDILDKHLQRV[dA]L-NH2; lactam 4-8) tested on GST-β-catenin (Homo sapiens, UniProt P35222). 7.21

And the next one, CC[C@H](C)[C@@H]1NC(=O)[C@@H](NC(=O)[C@H](CCC(=O)O)NC(=O)[C@@H]2CCCN2C(=O)[C@H](Cc2ccc(O)cc2)NC(=O)CNC(=O)CNC(C)=O)CC(=O)NCCCC[C@@H](C(=O)N[C@@H](Cc2c[nH]cn2)C(=O)N[C@@H](CC(C)C)C(=O)N[C@@H](CCC(N)=O)C(=O)N[C@@H](CCCNC(=N)N)C(=O)N[C@H](C(=O)N[C@H](C(=O)N[C@@H](CC(C)C)C(N)=O)[C@@H](C)CC)C(C)C)NC(=O)[C@H](CC(=O)O)NC(=O)[C@H](CC(C)C)NC1=O [Peptide 9] (Ac-GGYPEDILDKHLQRVIL-NH2; lactam 6-10) ? 6.82

And the next one, CC[C@H](C)[C@H](NC(=O)[C@@H](NC(=O)[C@H](CCCNC(=N)N)NC(=O)[C@H](CCC(N)=O)NC(=O)[C@H](CC(C)C)NC(=O)[C@H](Cc1c[nH]cn1)NC(=O)[C@@H]1CCCCNC(=O)C[C@H](NC(=O)[C@H](CCC(=O)O)NC(=O)[C@@H]2CCCN2C(=O)[C@H](Cc2ccc(O)cc2)NC(=O)CNC(=O)CNC(C)=O)C(=O)N[C@@H]([C@@H](C)CC)C(=O)N[C@@H](CC(C)C)C(=O)N[C@@H](CC(=O)O)C(=O)N1)C(C)C)C(N)=O [Peptide 10] (Ac-GGYPEDILDKHLQRVI-NH2; lactam 6-10) ? 5.82
